# experimental.system: ACBD3 Golgi resident protein GCP60 (Homo sapiens, UniProt Q9H3P7)
# Construct: isoTOP-ABPP experiments performed in cell lysates (in vitro); endogenous in cells; host or cells: soluble proteome of human cancer cell lines (MDA-MB-231; Ramos and Jurkat also prepared)
# Sequence (Q9H3P7 whole entry): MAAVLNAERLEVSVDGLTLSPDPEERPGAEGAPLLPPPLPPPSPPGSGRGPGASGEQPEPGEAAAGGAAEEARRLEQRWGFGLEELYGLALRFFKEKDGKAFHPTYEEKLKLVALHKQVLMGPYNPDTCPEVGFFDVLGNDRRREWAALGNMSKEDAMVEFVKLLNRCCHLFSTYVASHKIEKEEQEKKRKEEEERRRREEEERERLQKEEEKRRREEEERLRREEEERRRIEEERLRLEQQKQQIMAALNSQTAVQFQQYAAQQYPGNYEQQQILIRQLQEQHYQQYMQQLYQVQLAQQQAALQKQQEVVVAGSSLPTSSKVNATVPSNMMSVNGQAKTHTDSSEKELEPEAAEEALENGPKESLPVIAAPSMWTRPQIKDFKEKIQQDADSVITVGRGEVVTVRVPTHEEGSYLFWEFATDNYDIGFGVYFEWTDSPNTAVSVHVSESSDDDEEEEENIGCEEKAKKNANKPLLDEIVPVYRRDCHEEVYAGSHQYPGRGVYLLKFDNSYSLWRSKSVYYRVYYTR
# experimental.details: competitive isoTOP-ABPP
# Assay type: binding
# Set-up: key: R = MS1 peak area ratio, DMSO (heavy) / compound-treated (light)
# cond: 50 uM, 231 sol, in vitro
# Protocol: In vitro covalent fragment treatment for isoTOP-ABPP. All compounds were made up as solutions in DMSO (100×) and were used at a final concentration of 50 μM for activated esters and 100 μM for guanidinylating agents. […] R value calculation and processing. The ratios of light and heavy MS1 peaks for each unique peptide were quantified with a CIMAGE software using default parameters (3 MS1 acquisitions per peak and signal to noise threshold set to 2.5). […]
measured.attribute: isoTOP-ABPP reactivity ratio at lysine Q9H3P7_K117

Recorded isoTOP-ABPP reactivity ratio at lysine Q9H3P7_K117, per entry:
IN: Please report the recorded isoTOP-ABPP reactivity ratio at lysine Q9H3P7_K117 for `Cn1cc(CC(=O)Oc2ccc([N+](=O)[O-])cc2[N+](=O)[O-])c2ccccc21` .
OUT: 1.3

IN: Follow-up item: `CCn1cc(C(=O)Oc2c(F)c(F)c(F)c(F)c2F)c(=O)c2ccc(C)nc21`
OUT: 1.1

a. O=C(Oc1c(F)c(F)c(F)c(F)c1F)C1CCN(C(=O)OCc2ccccc2)CC1
b. O=C(CCc1coc2cc(F)ccc2c1=O)Oc1c(F)c(F)c(F)c(F)c1F
IN: Compare a and b by numeric isoTOP-ABPP reactivity ratio at lysine Q9H3P7_K117 and name the larger one. Use the label to indicate which entry you chose.
OUT: b

---

# experimental.system: CNOT4 CCR4-NOT transcription complex subunit 4 (Homo sapiens, UniProt O95628)
# Construct: isoTOP-ABPP experiments performed in cell lysates (in vitro); endogenous in cells; host or cells: MDA-MB-231 soluble lysate
# Sequence (O95628 whole entry, one chain of several): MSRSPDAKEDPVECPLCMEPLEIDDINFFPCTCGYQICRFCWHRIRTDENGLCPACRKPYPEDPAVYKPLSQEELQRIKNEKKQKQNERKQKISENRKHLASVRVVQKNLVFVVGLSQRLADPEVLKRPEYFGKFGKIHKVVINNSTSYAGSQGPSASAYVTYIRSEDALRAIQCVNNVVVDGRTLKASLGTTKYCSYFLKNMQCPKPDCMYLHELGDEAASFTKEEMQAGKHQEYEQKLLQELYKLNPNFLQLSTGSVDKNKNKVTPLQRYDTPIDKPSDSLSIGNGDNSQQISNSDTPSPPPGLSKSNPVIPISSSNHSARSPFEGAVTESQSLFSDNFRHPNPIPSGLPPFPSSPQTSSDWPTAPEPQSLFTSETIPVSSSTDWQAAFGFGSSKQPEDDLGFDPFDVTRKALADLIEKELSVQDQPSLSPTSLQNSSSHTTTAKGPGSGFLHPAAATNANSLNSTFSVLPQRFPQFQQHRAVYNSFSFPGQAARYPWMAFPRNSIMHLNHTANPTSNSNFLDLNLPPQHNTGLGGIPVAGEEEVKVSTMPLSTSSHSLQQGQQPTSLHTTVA
# experimental.details: competitive isoTOP-ABPP
# Assay type: binding
# cond: 50 uM_231_sol_in vitro
measured.attribute: isoTOP-ABPP ratio, lysine O95628_K134

Recorded isoTOP-ABPP ratio, lysine O95628_K134, per entry:
IN: Please report the recorded isoTOP-ABPP ratio, lysine O95628_K134 for O=C(CCc1ccc2c(c1)OCO2)Oc1ccc([N+](=O)[O-])cc1[N+](=O)[O-] [fragment 45] .
OUT: 2.8

IN: Follow-up item: O=C(ON1C(=O)CCC1=O)c1cc(C(F)(F)F)cc(C(F)(F)F)c1 [fragment 46]
OUT: 5.2

IN: Follow-up item: N#Cc1ccc(C(=O)Oc2ccc([N+](=O)[O-])cc2[N+](=O)[O-])cc1 [fragment 44, 2,4-Dinitrophenyl 4-cyanobenzoate]
OUT: 2.0

P. NC(=O)c1cc(C(F)(F)F)cc(C(F)(F)F)c1 [fragment 51, reference compound]
Q. O=C(Oc1c(F)c(F)c(C(F)(F)F)c(F)c1F)c1cc(C(F)(F)F)cc(C(F)(F)F)c1 [fragment 47]
IN: Compare P and Q by numeric isoTOP-ABPP ratio, lysine O95628_K134 and name the larger one. Use the label to indicate which entry you chose.
OUT: Q
(Q: 1.5, P: 0.9)

---

# experimental.system: KIAA1967 DBIRD complex subunit KIAA1967 (Homo sapiens, UniProt Q8N163)
# Construct: isoTOP-ABPP experiments performed in cell lysates (in vitro); endogenous in cells; host or cells: soluble proteome of human cancer cell lines (MDA-MB-231; Ramos and Jurkat also prepared)
# Sequence (Q8N163 whole entry, one chain of several): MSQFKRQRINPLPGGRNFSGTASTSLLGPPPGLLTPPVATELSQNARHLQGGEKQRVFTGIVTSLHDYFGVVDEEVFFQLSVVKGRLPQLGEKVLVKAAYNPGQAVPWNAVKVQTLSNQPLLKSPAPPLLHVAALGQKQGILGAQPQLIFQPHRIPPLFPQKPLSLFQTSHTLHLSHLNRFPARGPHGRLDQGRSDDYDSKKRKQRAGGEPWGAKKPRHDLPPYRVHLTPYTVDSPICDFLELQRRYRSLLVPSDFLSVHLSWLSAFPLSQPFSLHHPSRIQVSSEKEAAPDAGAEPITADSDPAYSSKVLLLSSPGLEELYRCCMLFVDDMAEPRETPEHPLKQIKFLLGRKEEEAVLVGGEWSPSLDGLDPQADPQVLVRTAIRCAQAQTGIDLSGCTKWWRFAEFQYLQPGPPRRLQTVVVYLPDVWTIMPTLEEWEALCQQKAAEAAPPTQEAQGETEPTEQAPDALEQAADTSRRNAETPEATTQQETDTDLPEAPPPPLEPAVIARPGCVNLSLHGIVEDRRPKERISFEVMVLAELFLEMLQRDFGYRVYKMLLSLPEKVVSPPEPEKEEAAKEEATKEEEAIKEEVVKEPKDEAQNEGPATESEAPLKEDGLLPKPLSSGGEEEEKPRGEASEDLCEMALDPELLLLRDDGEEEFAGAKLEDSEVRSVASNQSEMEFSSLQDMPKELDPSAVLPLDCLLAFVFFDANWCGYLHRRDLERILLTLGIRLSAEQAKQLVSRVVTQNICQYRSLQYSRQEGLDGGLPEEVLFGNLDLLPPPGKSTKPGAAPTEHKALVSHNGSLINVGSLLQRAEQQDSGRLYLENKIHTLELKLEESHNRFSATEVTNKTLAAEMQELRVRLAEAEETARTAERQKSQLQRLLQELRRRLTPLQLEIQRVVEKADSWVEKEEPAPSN
# experimental.details: competitive isoTOP-ABPP
# Assay type: binding
# cond: 50 uM_231_sol_in vitro
measured.attribute: isoTOP-ABPP ratio, lysine Q8N163_K112

Recorded isoTOP-ABPP ratio, lysine Q8N163_K112, per entry:
IN: Please report the recorded isoTOP-ABPP ratio, lysine Q8N163_K112 for NC(=O)c1cc(C(F)(F)F)cc(C(F)(F)F)c1 [fragment 51, reference compound] .
OUT: 0.8

IN: Follow-up item: `O=C(CCc1ccc2c(c1)OCO2)Oc1ccc([N+](=O)[O-])cc1[N+](=O)[O-]`
OUT: 1.2

IN: Follow-up item: N#Cc1ccc(C(=O)Oc2ccc([N+](=O)[O-])cc2[N+](=O)[O-])cc1 [fragment 44, 2,4-Dinitrophenyl 4-cyanobenzoate]
OUT: 1.0

IN: Follow-up item: `O=C(ON1C(=O)CCC1=O)c1cc(C(F)(F)F)cc(C(F)(F)F)c1`
OUT: 1.1

I. O=C(Oc1c(F)c(F)c(C(F)(F)F)c(F)c1F)c1cc(C(F)(F)F)cc(C(F)(F)F)c1
II. O=C(Oc1c(F)c(F)cc(F)c1F)c1cc(C(F)(F)F)cc(C(F)(F)F)c1
IN: Between I and II , which one shows the smaller isoTOP-ABPP ratio, lysine Q8N163_K112 number? Use the label to indicate which entry you chose.
OUT: II
(II: 1.0, I: 1.5)

---

# experimental.system: STRN3 Striatin-3 (Homo sapiens, UniProt Q13033)
# Construct: isoTOP-ABPP experiments performed in cell lysates (in vitro); endogenous in cells; host or cells: soluble proteome of human cancer cell lines (MDA-MB-231, Ramos, Jurkat)
# Sequence (Q13033 whole entry): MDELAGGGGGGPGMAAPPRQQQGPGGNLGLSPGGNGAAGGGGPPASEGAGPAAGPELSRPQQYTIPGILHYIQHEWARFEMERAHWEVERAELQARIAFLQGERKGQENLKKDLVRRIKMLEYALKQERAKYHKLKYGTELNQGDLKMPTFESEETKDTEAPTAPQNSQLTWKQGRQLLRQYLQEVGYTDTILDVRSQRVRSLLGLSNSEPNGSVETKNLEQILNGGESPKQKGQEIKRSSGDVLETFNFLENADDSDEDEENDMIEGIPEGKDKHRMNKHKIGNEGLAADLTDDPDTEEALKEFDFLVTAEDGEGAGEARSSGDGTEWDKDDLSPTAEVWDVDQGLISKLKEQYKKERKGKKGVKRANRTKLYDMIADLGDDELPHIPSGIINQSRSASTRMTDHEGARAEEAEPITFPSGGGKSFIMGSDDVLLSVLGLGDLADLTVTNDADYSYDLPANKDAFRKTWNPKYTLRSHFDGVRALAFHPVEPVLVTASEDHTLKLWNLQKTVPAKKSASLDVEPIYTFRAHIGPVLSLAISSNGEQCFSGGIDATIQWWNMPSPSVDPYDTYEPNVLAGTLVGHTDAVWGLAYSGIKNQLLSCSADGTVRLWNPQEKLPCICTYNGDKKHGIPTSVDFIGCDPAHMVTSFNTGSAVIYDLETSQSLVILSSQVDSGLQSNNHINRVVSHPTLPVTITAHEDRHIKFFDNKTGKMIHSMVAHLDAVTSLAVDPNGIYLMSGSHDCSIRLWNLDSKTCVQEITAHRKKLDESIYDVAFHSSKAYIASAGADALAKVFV
# experimental.details: competitive isoTOP-ABPP
# Format: binding
# cond: Q13033_K755; 50 uM, 231 sol, in vitro
measured.attribute: R value (DMSO/fragment) for probe 1 labeling

IN: Please report the recorded R value (DMSO/fragment) for probe 1 labeling for `COc1cc(CCC(=O)Oc2c(F)c(F)c(F)c(F)c2F)cc(OC)c1OC` .
OUT: 1.2

IN: Follow-up item: O=C(Oc1c(F)c(F)c(F)c(F)c1F)C(c1ccccc1)c1ccccc1 [fragment 20, Pentafluorophenyl 2,2-diphenylacetate]
OUT: 0.9

IN: Follow-up item: `O=C(Oc1c(F)c(F)c(F)c(F)c1F)c1cc(C(F)(F)F)cc(C(F)(F)F)c1`
OUT: 0.9

IN: Follow-up item: `Cn1cc(CC(=O)Oc2c(F)c(F)c(F)c(F)c2F)c2ccccc21`
OUT: 1.0

IN: Follow-up item: `O=C(CCc1cn(-c2ccccc2)nc1-c1ccccc1)Oc1c(F)c(F)c(F)c(F)c1F`
OUT: 0.9

---

isoTOP-ABPP reactivity ratio at lysine Q96HE7_K413 overview
# experimental.system: ERO1L ERO1-like protein alpha (Homo sapiens, UniProt Q96HE7)
# Construct: isoTOP-ABPP experiments performed in cell lysates (in vitro); endogenous in cells; host or cells: soluble proteome of human cancer cell lines (MDA-MB-231; Ramos and Jurkat also prepared)
# Sequence (Q96HE7 24-468): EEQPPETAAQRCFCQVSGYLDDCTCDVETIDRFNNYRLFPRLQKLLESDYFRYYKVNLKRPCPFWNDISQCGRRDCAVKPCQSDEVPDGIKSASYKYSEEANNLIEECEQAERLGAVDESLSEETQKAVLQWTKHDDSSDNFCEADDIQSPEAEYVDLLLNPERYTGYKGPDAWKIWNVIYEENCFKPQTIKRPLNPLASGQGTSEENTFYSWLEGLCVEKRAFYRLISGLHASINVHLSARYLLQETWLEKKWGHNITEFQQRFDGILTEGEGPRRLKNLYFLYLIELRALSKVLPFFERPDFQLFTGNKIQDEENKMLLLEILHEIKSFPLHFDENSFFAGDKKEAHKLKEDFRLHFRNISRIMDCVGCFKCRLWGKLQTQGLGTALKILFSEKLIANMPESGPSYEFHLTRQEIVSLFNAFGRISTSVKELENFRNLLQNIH
# experimental.details: competitive isoTOP-ABPP
# Type: binding
# cond: 50 uM, 231 sol, in vitro
Note: the reply should be a number with no unit written.

IN: Please report the recorded isoTOP-ABPP reactivity ratio at lysine Q96HE7_K413 for O=C(Oc1ccc([N+](=O)[O-])cc1[N+](=O)[O-])C(c1ccccc1)c1ccccc1 [fragment 30, 2,4-Dinitrophenyl 2,2-diphenylacetate] .
OUT: 1.2

IN: Follow-up item: `CCn1cc(C(=O)Oc2c(F)c(F)c(F)c(F)c2F)c(=O)c2ccc(C)nc21`
OUT: 1.4

IN: Follow-up item: `Cn1cc(CC(=O)Oc2ccc([N+](=O)[O-])cc2[N+](=O)[O-])c2ccccc21`
OUT: 20.0

Could you now look at the following compound, please?
IN: Please report the recorded isoTOP-ABPP reactivity ratio at lysine Q96HE7_K413 for `O=C(CCc1cn(-c2ccccc2)nc1-c1ccccc1)Oc1ccc([N+](=O)[O-])cc1[N+](=O)[O-]` .
OUT: 20.0

---

# experimental.system: UCHL5 Ubiquitin carboxyl-terminal hydrolase isozyme L5 (Homo sapiens, UniProt Q9Y5K5)
# Construct: endogenous in cells; host or cells: MDA-MB-231 (soluble fraction of lysate)
# Sequence (Q9Y5K5 whole entry): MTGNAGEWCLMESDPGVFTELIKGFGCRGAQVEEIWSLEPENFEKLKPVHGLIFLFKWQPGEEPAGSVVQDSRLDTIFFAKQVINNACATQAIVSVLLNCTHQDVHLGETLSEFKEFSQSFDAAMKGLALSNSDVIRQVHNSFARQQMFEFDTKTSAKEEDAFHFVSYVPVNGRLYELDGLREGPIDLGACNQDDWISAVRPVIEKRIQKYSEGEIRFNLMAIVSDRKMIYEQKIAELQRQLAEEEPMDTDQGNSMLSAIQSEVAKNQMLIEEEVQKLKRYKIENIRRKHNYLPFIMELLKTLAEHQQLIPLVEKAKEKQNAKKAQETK
# experimental.details: competitive isoTOP-ABPP
# Format: binding
# cond: 50 uM, in vitro, sol, 231
measured.attribute: isoTOP-ABPP ratio (R) at liganded lysine Q9Y5K5_K323
Note: the reply should be a number with no unit written.

Recorded isoTOP-ABPP ratio (R) at liganded lysine Q9Y5K5_K323, per entry:
IN: Form field: isoTOP-ABPP ratio (R) at liganded lysine Q9Y5K5_K323 recorded for CC(=O)Oc1ccc([N+](=O)[O-])cc1[N+](=O)[O-] [fragment 43, 2,4-Dinitrophenyl acetate] with UCHL5 Ubiquitin carboxyl-terminal hydrolase isozyme L5 (Homo sapiens, UniProt Q9Y5K5) (enter value)
OUT: 1.0

IN: Follow-up item: `O=C(Oc1ccc([N+](=O)[O-])cc1[N+](=O)[O-])c1ccccc1Nc1cccc(C(F)(F)F)c1`
OUT: 1.0

IN: Follow-up item: `O=C(CCc1coc2cc(F)ccc2c1=O)Oc1ccc([N+](=O)[O-])cc1[N+](=O)[O-]`
OUT: 0.8

More entries:
IN: Form field: isoTOP-ABPP ratio (R) at liganded lysine Q9Y5K5_K323 recorded for `O=C(Oc1ccc([N+](=O)[O-])cc1[N+](=O)[O-])C1CCN(C(=O)OCc2ccccc2)CC1` with UCHL5 Ubiquitin carboxyl-terminal hydrolase isozyme L5 (Homo sapiens, UniProt Q9Y5K5) (enter value)
OUT: 0.9

IN: Follow-up item: O=C(Oc1ccc([N+](=O)[O-])cc1[N+](=O)[O-])C(c1ccccc1)(c1ccccc1)c1ccccc1 [fragment 42, 2,4-Dinitrophenyl 2,2,2-triphenylacetate]
OUT: 1.0

IN: Follow-up item: `CC(C)(C)OC(=O)NCCCC(=O)Oc1ccc([N+](=O)[O-])cc1[N+](=O)[O-]`
OUT: 1.0

IN: Follow-up item: `O=C(CC12CC3CC(CC(C3)C1)C2)Oc1ccc([N+](=O)[O-])cc1[N+](=O)[O-]`
OUT: 0.9
